target: T1, human uPAR displayed on the surface of MDA-MB-231 cells (human, UniProt Q03405 23-305); assay: flow cytometry on MDA-MB-231 cells
T1 construct: whole, on cells; also called cell-surface uPAR; cellular uPAR
T1 sequence (Q03405 23-305): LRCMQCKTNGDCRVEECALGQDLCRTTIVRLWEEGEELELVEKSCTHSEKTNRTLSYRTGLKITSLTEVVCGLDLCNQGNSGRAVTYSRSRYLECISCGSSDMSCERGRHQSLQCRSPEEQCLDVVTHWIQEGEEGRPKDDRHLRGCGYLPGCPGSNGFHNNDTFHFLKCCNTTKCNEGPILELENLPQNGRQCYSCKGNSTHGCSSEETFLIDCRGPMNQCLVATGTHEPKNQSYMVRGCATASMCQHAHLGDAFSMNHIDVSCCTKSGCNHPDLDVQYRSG
Decide using EC50 alone. Strictly below 0.4 µg/mL: satisfied. Equal to or above 0.4 µg/mL: not satisfied.

Binder: 3159 HC1 + LC2 (humanized) (antibody, V domains shown, detected with anti-human Fc antibody) VH: QVTLRESGPALVKPTQTLTLTCTLSGFSLSTSGMGVSWIRQPPGKALEWLAHIYWDDDKRYSTSLKTRLTISKDASKDQVVLTMTNMDTVDTATYYCGRRVRNYFSGTSYWYFDVWGTGTLVTVSS VL: DVVMTQSPLSLPVTLGQPASISCRSSQNILHRTGNTYLEWFQQRPGQSPRLLIYKVSNRFSGVPDRFSGSGSGTDFTLKISRVEAEDVGVYYCFQGSYVPFTFGQGTKLEIK
Class Assignment: not satisfied

Binder: 3159 HC2 + LC2 (humanized) (antibody, V domains shown, detected with anti-human Fc antibody) VH: QVTLKESGPVLVKPTETLTLTCTVSGFSLSTSGMGVSWIRQPPGKGLEWLAHIYWDDDKRYSPSLKSRLTISKDASKDQVVLTMTNMDTVDTATYYCGRRVRNYFSGTSYWYFDVWGTGTLVTVSS VL: DVVMTQSPLSLPVTLGQPASISCRSSQNILHRTGNTYLEWFQQRPGQSPRLLIYKVSNRFSGVPDRFSGSGSGTDFTLKISRVEAEDVGVYYCFQGSYVPFTFGQGTKLEIK
Class Assignment: satisfied

Binder: 11857 HC2 + LC1 (humanized) (antibody, V domains shown, detected with anti-human Fc antibody) VH: EVQLVQSGAEVKKPGASVKVSCKASGYTFTDYYMNWVRQAPGKSLEWMGNINPNNGGTDYSQKFQGRVTITVDTSASTAYMELSSLRSEDTAVYYCARSYGSRFPYWGLGTLVTVSS VL: DIQMTQSPSSLSASVGDRVTITCRASQDITNYLSWYQQKPGGTVKLLLYYTAVLQSGFPSRFSGSGSGADYTLTISSLQPEDFATYYCQQGHTLPWTFGGGTKVEIK
Class Assignment: not satisfied

Binder: 3159 HC2 + LC1 (humanized) (antibody, V domains shown, detected with anti-human Fc antibody) VH: QVTLKESGPVLVKPTETLTLTCTVSGFSLSTSGMGVSWIRQPPGKGLEWLAHIYWDDDKRYSPSLKSRLTISKDASKDQVVLTMTNMDTVDTATYYCGRRVRNYFSGTSYWYFDVWGTGTLVTVSS VL: DIVMTQTPLSLSVTPGQPASISCKSSQNILHRTGNTYLEWYLQKPGQPPQLLIYKVSNRFSGVPDRFSGSGSGTDFTLKISRVEAEDVGVYYCFQGSYVPFTFGQGTKLEIK
Class Assignment: satisfied

Binder: 11857 HC2 + LC2 (humanized) (antibody, V domains shown, detected with anti-human Fc antibody) VH: EVQLVQSGAEVKKPGASVKVSCKASGYTFTDYYMNWVRQAPGKSLEWMGNINPNNGGTDYSQKFQGRVTITVDTSASTAYMELSSLRSEDTAVYYCARSYGSRFPYWGLGTLVTVSS VL: DIQMTQSPSSLSASVGDRVTITCRASQDITNYLSWYQQKPGGTVKLLIFYTAVLQSGFPSRFSGSGSGADFTLTISSLQPEDVATYYCQQGHTLPWTFGGGTKVEIK
Class Assignment: satisfied

Binder: 3159 HC3 + LC1 (humanized) (antibody, V domains shown, detected with anti-human Fc antibody) VH: QITLKESGPTLVKPTQTLTLTCTLSGFSLSTSGMGVSWIRQPPGKALEWLAHIYWDDDKRYNPSLKSRLTITKDASKDQVVLTMTNMDTVDTATYYCGRRVRNYFSGTSYWYFDVWGTGTLVTVSS VL: DIVMTQTPLSLSVTPGQPASISCKSSQNILHRTGNTYLEWYLQKPGQPPQLLIYKVSNRFSGVPDRFSGSGSGTDFTLKISRVEAEDVGVYYCFQGSYVPFTFGQGTKLEIK
Class Assignment: not satisfied

Binder: 11857 HC1 + LC1 (humanized) (antibody, V domains shown, detected with anti-human Fc antibody) VH: EVQLVQSGAEVKKPGATVKISCKVSGYTFTDYYMNWVQQAPGKSLEWMGNINPNNGGTDYNQKFQGRVTITADKSTSTAYMELSSLRSEDTAVYYCARSYGSRFPYWGLGTLVTVSS VL: DIQMTQSPSSLSASVGDRVTITCRASQDITNYLSWYQQKPGGTVKLLLYYTAVLQSGFPSRFSGSGSGADYTLTISSLQPEDFATYYCQQGHTLPWTFGGGTKVEIK
Class Assignment: not satisfied

Binder: 11857 HC3 + LC1 (humanized) (antibody, V domains shown, detected with anti-human Fc antibody) VH: EVQLVQSGAEVKKPGASVKVSCKASGYTFTDYYMNWVRQAPGKSLEWMGNINPNNGGTDYNQKFQGRVTLTVDTSISTAYMELSRLRSDDTVVYYCARSYGSRFPYWGLGTLVTVSS VL: DIQMTQSPSSLSASVGDRVTITCRASQDITNYLSWYQQKPGGTVKLLLYYTAVLQSGFPSRFSGSGSGADYTLTISSLQPEDFATYYCQQGHTLPWTFGGGTKVEIK
Class Assignment: satisfied

Binder: 3159 HC3 + LC2 (humanized) (antibody, V domains shown, detected with anti-human Fc antibody) VH: QITLKESGPTLVKPTQTLTLTCTLSGFSLSTSGMGVSWIRQPPGKALEWLAHIYWDDDKRYNPSLKSRLTITKDASKDQVVLTMTNMDTVDTATYYCGRRVRNYFSGTSYWYFDVWGTGTLVTVSS VL: DVVMTQSPLSLPVTLGQPASISCRSSQNILHRTGNTYLEWFQQRPGQSPRLLIYKVSNRFSGVPDRFSGSGSGTDFTLKISRVEAEDVGVYYCFQGSYVPFTFGQGTKLEIK
Class Assignment: satisfied

Binder: Antibody 11857 (antibody, human IgG1, V domains shown) VH: EVQLRQSGPELVKPGASVKISCKASGYTFTDYYMNWVKQSHEKSLEWIGNINPNNGGTDYNQKFKGKATLTVDKSSSTAYMELRSLTSEDSAVYYCARSYGSRFPYWGLGTLVTVSA VL: DIQMTQTTSSLSASLGDRVTISCRASQDITNYLSWYQQKPDGTVKLLIFYTAVLQSGFPLRFSGSGSGADYSLTISNLEQEDFATYFCQQGHTLPWTFGGGTKLEIK
Class Assignment: not satisfied

Binder: 3159 HC3 + LC3 (humanized) (antibody, V domains shown, detected with anti-human Fc antibody) VH: QITLKESGPTLVKPTQTLTLTCTLSGFSLSTSGMGVSWIRQPPGKALEWLAHIYWDDDKRYNPSLKSRLTITKDASKDQVVLTMTNMDTVDTATYYCGRRVRNYFSGTSYWYFDVWGTGTLVTVSS VL: DIVMTQSPLSLPVTPGEPASISCRSSQNILHRTGNTYLDWYLQKPGQSPQLLIYKVSNRFSGVPDRFSGSGSGTDFTLKISRVEAEDVGVYYCFQGSYVPFTFGQGTKLEIK
Class Assignment: satisfied
